Biological target: human IDO1 (Homo sapiens)
Assay: IDO inhibition assay in human IDO1/HEK293 cells (IDO1 HEK Human)
Settings: HEK293 cells stably expressing human IDO1; 20 hours incubation; absorbance at 490 nm after Ehrlich reagent
MEASURE_NAME: IC50 (nM)
Reply numerically in nM, unit not repeated.

Example entries begin here.
Cc1ccc(NC(=O)Nc2cc(-c3cc(F)ccc3C(=O)O)cc3c2O[C@@H](C)[C@H]3CCC(F)(F)F)cc1 (relative stereo) [Example 117]    2500
c1ccc(C2CCCOc3c(Nc4nc5ccccc5s4)cc(-c4ccccc4-c4nnn[nH]4)cc32)cc1 (single isomer, unassigned) [64 (En. 2)]    17

# evaluate next
Q. Return reported IC50; argument: Cc1ccc(CC(=O)Nc2cc(-c3ccccc3-c3nnn[nH]3)cc3c2OCCCC3C2CC2)c(F)c1 (single isomer, unassigned) [39 (En. 2)]
A. 32.6

###

Molecular target: human IDO1 (Homo sapiens, UniProt P14902)
Sequence (P14902 whole entry): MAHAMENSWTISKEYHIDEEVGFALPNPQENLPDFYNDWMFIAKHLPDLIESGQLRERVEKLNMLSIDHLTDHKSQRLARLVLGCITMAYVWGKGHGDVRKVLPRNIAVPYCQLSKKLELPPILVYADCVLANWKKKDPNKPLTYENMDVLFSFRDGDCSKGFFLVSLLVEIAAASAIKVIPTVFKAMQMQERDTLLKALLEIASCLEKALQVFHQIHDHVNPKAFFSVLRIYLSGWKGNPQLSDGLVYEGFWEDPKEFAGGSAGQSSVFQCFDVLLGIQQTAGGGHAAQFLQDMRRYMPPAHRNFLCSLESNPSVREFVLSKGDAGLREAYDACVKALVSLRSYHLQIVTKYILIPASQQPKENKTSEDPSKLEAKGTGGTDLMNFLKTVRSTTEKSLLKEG
Test: IDO inhibition assay in human IDO1/HEK293 cells (IDO1 HEK Human)
Conditions: HEK293 cells stably expressing human IDO1; 20 hours incubation; absorbance at 490 nm after Ehrlich reagent
MEASURE_NAME: IC50 (nM)
Reply numerically in nM, unit not repeated.

Cc1ccc(NC(=O)Nc2cc(-c3ccccc3-c3nnn[nH]3)cc3c2OC(C(C)C)C3c2ccccc2)cc1 (racemic)    11
Cc1ccc(NC(=O)Nc2cc(-c3ccccc3S(=O)(=O)NC(=O)c3ccccc3)cc3c2OCCCC3c2ccccc2)cc1 (single isomer, unassigned) [Example 61]    2290

Q. Return reported IC50; argument: Cc1csc(NC(=O)Nc2cc(-c3ccccc3-c3nnn[nH]3)cc3c2OCCCC3c2ccccc2)n1 (stereo not drawn)
A. 1070

###

Below, each entry is listed alongside its reported IC50.
Target: UniProtKB P14902
Assay: IDO inhibition assay in human IDO1/HEK293 cells (IDO1 HEK Human)
Conditions: HEK293 cells stably expressing human IDO1; 20 hours incubation; absorbance at 490 nm after Ehrlich reagent
# answer = value followed by unit

Example entries begin here.
C=C[C@H]1Oc2c(NC(=O)Nc3ccc(C)cc3)cc(-c3ccccc3-c3nnn[nH]3)cc2[C@@H]1CCC(F)(F)F (single isomer, unassigned) [Example 129]    16 nM
Fc1ccc2oc(Nc3cc(-c4ccccc4-c4nnn[nH]4)cc4c3OCCCC4C3CC3)nc2c1 (stereo not drawn) [Example 27]    26.4 nM

Q. Return reported IC50; argument: Cc1cnc(Nc2cc(-c3ccccc3-c3nnn[nH]3)cc3c2OCCCC3c2ccccc2)nc1 (racemic) [55 (Rac)]
A. 155 nM

###

Biological target: human IDO1 (Homo sapiens)
Assay: IDO inhibition assay in human IDO1/HEK293 cells (IDO1 HEK Human)
Details: HEK293 cells stably expressing human IDO1; 20 hours incubation; absorbance at 490 nm after Ehrlich reagent
MEASURE_NAME: pIC50
Please express pIC50 as -log10 of the molar concentration.

Cc1ccc(Nc2cc(-c3ccccc3-c3nnn[nH]3)cc3c2OCCCC3c2ccccc2)nc1 (single isomer, unassigned) [62 (En. 1)]    5.74
Cc1ccc(NC(=O)Nc2cc(-c3ccccc3-c3nnn[nH]3)cc3c2OCCCC3C2CC2)cc1 (single isomer, unassigned) [36 (En. 2)]    8.62

# evaluate next
Q. Return reported pIC50; argument: CCC(C)C1CCCOc2c(NC(=O)Cc3ccc(C)cc3)cc(-c3ccccc3-c3nnn[nH]3)cc21 (single isomer, unassigned) [30 (Dia. mix 1)]
A. 7.11

###

Below, each entry is listed alongside its reported pIC50.
Biological target: human IDO1 (Homo sapiens)
Construct: expressed in transfected cells
Test: IDO inhibition assay in human IDO1/HEK293 cells (IDO1 HEK Human)
Type: cell-based
Conditions: HEK293 cells stably expressing human IDO1; 20 hours incubation; absorbance at 490 nm after Ehrlich reagent
Please express pIC50 as -log10 of the molar concentration.

Cc1nc2ccc(Nc3cc(-c4ccccc4-c4nnn[nH]4)cc4c3OCCCC4c3ccccc3)cc2s1 (single isomer, unassigned)    8.51

Q. Return reported pIC50; argument: Cc1ccc(CC(=O)Nc2cc(-c3ccccc3-c3nnn[nH]3)cc3c2OCCCC3c2ccccc2)cc1 (single isomer, unassigned) [Example 2-3]
A. 7.67

Q. Return reported pIC50; argument: CC(=O)NS(=O)(=O)c1ccccc1-c1cc(NC(=O)Nc2ccc(C)cc2)c2c(c1)C(c1ccccc1)CCCO2 (single isomer, unassigned) [Example 58]
A. 5.87

###

Target: human IDO1 (Homo sapiens)
Assay: IDO inhibition assay in human IDO1/HEK293 cells (IDO1 HEK Human)
Conditions: HEK293 cells stably expressing human IDO1; 20 hours incubation; absorbance at 490 nm after Ehrlich reagent
MEASURE_NAME: pIC50
Please express pIC50 as -log10 of the molar concentration.

Example entries begin here.
Cc1cc(NC(=O)Nc2cc(-c3ccccc3-c3nnn[nH]3)cc3c2OCCCC3c2ccccc2)no1 (stereo not shown)    6.63
Cc1ccc(NC(=O)Nc2cc(-c3cc(F)ccc3C(=O)O)cc3c2O[C@@H](C)[C@H]3c2ccccc2)cc1 (relative stereo)    5.89
Cc1ccc(NC(=O)Nc2cc(-c3ccccc3-c3nnn[nH]3)cc3c2OCCC3c2ccccc2)cc1 (racemic)    7.67

Q. Return reported pIC50; argument: CCC(C)C1CCCOc2c(NC(=O)Nc3ccc(C)cc3)cc(-c3ccccc3-c3nnn[nH]3)cc21 (single isomer, unassigned)
A. 7.74

Q. Return reported pIC50; argument: Cc1ccc(NC(=O)Nc2cc(-c3ccccc3-c3nnn[nH]3)cc3c2OCCCC3C2CC2)cc1 (single isomer, unassigned) [36 (En. 1)]
A. 7.98

Q. Return reported pIC50; argument: CC[C@@H]1Oc2c(NC(=O)Nc3ccc(C)cc3)cc(-c3ccccc3-c3nnn[nH]3)cc2[C@H]1c1ccccc1 (racemic)
A. 7.74

Q. Return reported pIC50; argument: Cc1ccc(NC(=O)Nc2cc(-c3ccccc3-c3nnn[nH]3)cc3c2O[C@H](C)[C@H]3c2ccccc2)cc1 (relative stereo)
A. 7.55

Q. Return reported pIC50; argument: Cc1ccc(NC(=O)Nc2cc(-c3ccccc3-c3nc(=O)o[nH]3)cc3c2OCCCC3C2CC2)cc1 (single isomer, unassigned) [Example 33-1]
A. 8.92

Q. Return reported pIC50; argument: O=C(Nc1ccc(C2CC2)cc1F)Nc1cc(-c2ccccc2-c2nnn[nH]2)cc2c1OCCCC2c1ccccc1 (stereo not shown)
A. 7.15

Q. Return reported pIC50; argument: Cc1ccc(NC(=O)Nc2cc(-c3ccccc3-c3nnn[nH]3)cc3c2OCCCC3C(C)C)cc1 (single isomer, unassigned) [24 (En. 1)]
A. 9.01

Q. Return reported pIC50; argument: C=C[C@@H]1Oc2c(NC(=O)Nc3ccc(C)cc3)cc(-c3ccccc3-c3nn[nH]n3)cc2[C@@H]1c1ccccc1 (racemic)
A. 7.92

Q. Return reported pIC50; argument: Cc1ccc(CC(=O)Nc2cc(-c3ccccc3-c3nnn[nH]3)cc3c2OCCCC3C2CC2)cc1 (single isomer, unassigned) [37 (En. 2)]
A. 7.51

Q. Return reported pIC50; argument: CC1(C)Oc2c(NC(=O)Nc3ccc(C(F)(F)F)nc3)cc(-c3ccccc3-c3nnn[nH]3)cc2C1c1ccccc1 (racemic)
A. 5.68

Q. Return reported pIC50; argument: Cc1ccc(NC(=O)Nc2cc(-c3ccccc3C(=O)O)cc3c2OCCCC3c2ccccc2)cc1 (single isomer, unassigned) [Example 8-2]
A. 6.01

Q. Return reported pIC50; argument: Cc1ccc(NC(=O)Nc2cc(-c3ccccc3-c3nnn[nH]3)cc3c2O[C@@H](C)[C@H]3c2ccccc2)cc1 (relative stereo)
A. 7.11

Q. Return reported pIC50; argument: O=C(Nc1ccccc1F)Nc1cc(-c2ccccc2-c2nnn[nH]2)cc2c1OCCCC2c1ccc(F)cc1 (stereo not shown)
A. 7.55

Q. Return reported pIC50; argument: O=C(Nc1ccccc1F)Nc1cc(-c2ccccc2-c2nnn[nH]2)cc2c1OCCCC2c1ccccc1 (single isomer, unassigned) [10 (En.2)]
A. 7.38

###

Molecular target: UniProt:P14902
Assay: IDO inhibition assay in human IDO1/HEK293 cells (IDO1 HEK Human)
Conditions: HEK293 cells stably expressing human IDO1; 20 hours incubation; absorbance at 490 nm after Ehrlich reagent
Procedure: HEK293 cells were transfected with a pCDNA-based mammalian expression vector harboring human IDO1 cDNA (NM 002164.2) by electroporation. They were cultured in medium (DMEM with 10% FBS) containing 1 mg/ml G418 for two weeks. […] The compound treatments were stopped by adding trichloroacetic acid (Sigma-Aldrich) to a final concentration at 0.2%. […] The absorbance at 490 nm was measured on Envision plate reader. […]
MEASURE_NAME: pIC50
Please express pIC50 as -log10 of the molar concentration.

Example entries begin here.
O=C(Nc1ccc(F)cc1F)Nc1cc(-c2ccccc2-c2nnn[nH]2)cc2c1OCCCC2c1ccccc1 (stereo not drawn) [Example 21]    6.75
Cc1cnc(Nc2cc(-c3ccccc3-c3nnn[nH]3)cc3c2OCCCC3c2ccccc2)nc1 (single isomer, unassigned) [55 (En. 1)]    5.85
Cc1ccc(NC(=O)Nc2cc(-c3cc(F)ccc3C(=O)O)cc3c2O[C@H](C)[C@H]3c2ccccc2)cc1 (relative stereo) [Example 116]    6.90
COC(=O)c1c(C)cccc1-c1cc(NC(=O)Nc2ccc(C)cc2)c2c(c1)C(c1ccccc1)CCCO2 (stereo not drawn) [Example 66]    6.49
Cc1ccc(NC(=O)Nc2cc(-c3ccccc3-c3nnn[nH]3)cc3c2OCC(O)C(O)C3c2ccccc2)cc1 (single isomer, unassigned) [9 (En. 2)]    6.24

# evaluate next
Q. Return reported pIC50; argument: O=C(Nc1ccccc1F)Nc1cc(-c2ccccc2-c2nnn[nH]2)cc2c1OCCCC2C1CC1 (single isomer, unassigned) [38 (En. 1)]
A. 6.65
